B1: SCARA5 (parent)
chain: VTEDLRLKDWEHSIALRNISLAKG

- Variants of: B1
- method.summary: protein stability index of a GFP-peptide fusion (GPS, HEK-293T) (PSI 1-6); higher = more stable;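 note: lentivirally expressed fusions sorted by FACS into six bins by GFP to DsRed ratio, PSI derived from sequencing read proportions per bin multiplied by bin number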
- details: c terminus: a fixed tail appended
Overview of reported protein stability index across a group of variants:
Answer as a number with no unit attached.

# lookup: protein stability index of `R6V`
3.95
